Molecular target: Left-right determination factor 2 (Homo sapiens) (UniProt O00292)
Sequence (O00292 whole entry, looked up): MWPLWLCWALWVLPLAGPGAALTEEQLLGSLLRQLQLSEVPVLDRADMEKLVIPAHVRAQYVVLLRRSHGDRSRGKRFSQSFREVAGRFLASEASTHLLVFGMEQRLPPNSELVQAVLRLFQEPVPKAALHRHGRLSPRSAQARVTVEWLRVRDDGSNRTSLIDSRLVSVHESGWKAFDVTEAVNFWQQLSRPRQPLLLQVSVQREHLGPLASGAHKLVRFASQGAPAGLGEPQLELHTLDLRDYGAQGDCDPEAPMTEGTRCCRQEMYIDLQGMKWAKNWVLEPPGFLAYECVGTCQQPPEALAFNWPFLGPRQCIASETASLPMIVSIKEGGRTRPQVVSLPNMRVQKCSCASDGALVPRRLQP
Assay: LEFTY2 binders on small-molecule microarrays, primary screen, biochemical, small-molecule microarray, 635 nm fluorescence scan (AID 1110)
Conditions: LEFTY2 binding, higher = more signal
measure-name: composite z-score
Answer as a number with no unit attached.

Below, each entry is followed by its recorded composite z-score result.
[[record]]
compound = "CCOC(=O)C[C@H]1[C@H](OC(=O)c2ccc(-c3ccccc3)cc2)[C@@H](NC(=O)c2ccc3ccccc3c2)c2cc(OCCCO)ccc2N1C(=O)Cc1ccc(OC)cc1"
assay_target = "Left-right determination factor 2 (Homo sapiens) (UniProt O00292)"
measure_name = "composite z-score"
result = 0.0216

[[record]]
compound = "CS(=O)(=O)CCOC(=O)C1=CC(c2ccc(CO)cc2)=CC(C2CC2)N(Cc2cc3c(cc2Br)OCO3)C=C1C(=O)OCCS(C)(=O)=O (configuration not stated)"
assay_target = "Left-right determination factor 2 (Homo sapiens) (UniProt O00292)"
measure_name = "composite z-score"
result = 0.462

[[record]]
compound = "C=C[C@H](COC(C)=O)N(Cc1ccc(OC(C)=O)c(OC)c1)S(=O)(=O)c1ccc(Br)cc1"
assay_target = "Left-right determination factor 2 (Homo sapiens) (UniProt O00292)"
measure_name = "composite z-score"
result = 0.461

[[record]]
compound = "O=C1C2C=CC(C(O)c3ccc(B(O)O)cc3)N(Nc3ccccc3)C2C(=O)N1c1ccccc1 (configuration not stated)"
assay_target = "Left-right determination factor 2 (Homo sapiens) (UniProt O00292)"
measure_name = "composite z-score"
result = -0.158

[[record]]
compound = "O=C(CCN1CCOCC1)c1cccc(O)c1"
assay_target = "Left-right determination factor 2 (Homo sapiens) (UniProt O00292)"
measure_name = "composite z-score"
result = 1.47


Left-right determination factor 2 (Homo sapiens) (UniProt O00292) assay, compound "COC(=O)[C@@]1(Cc2ccccc2)[C@H]2c3cc(C(=O)N(C)C)n(Cc4cc(C)n(C)n4)c3C[C@H]2CN1C(=O)c1ccccc1" , recorded composite z-score = -0.279

Reported Left-right determination factor 2 (Homo sapiens) (UniProt O00292) composite z-score for item "COCCOC(=O)N1C(=O)[C@@]2(c3cc(C#CCC(C(=O)OC)C(=O)OC)ccc31)[C@H](C(=O)N1CCCCCCC1)[C@H]1C(=O)O[C@H](c3ccccc3)[C@H](c3ccccc3)N1[C@@H]2c1ccc(OCCO)cc1" was 1.33

----------
Test: basal MM1S mitochondrial membrane potential changes, profiling panel, cell-based, JC-1 fluorescence, 24 h, 100 nL compound (AID 1170); further: test concentration not given here
Settings: higher = more signal
Recorded measurements of z-score, one per entry
Note: the reply should be a number with no unit written.

[[record]]
compound = "CC(C)NC(=O)[C@@]1(Cc2ccccc2I)c2ccccc2C(=O)N(Cc2ccccc2)[C@H]1c1ccc(CO)cc1"
measure_name = "z-score"
result = -0.715

[[record]]
compound = "C=CCC(OC(C)=O)[C@@H]1[C@@H](N(Cc2ccc(-c3cccc(C(F)(F)F)c3)o2)C(=O)c2ccc(C)cc2)c2cc(OCCCO)ccc2N1C(=O)c1ccc(-c2ccccc2)cc1 (some centres undefined)"
measure_name = "z-score"
result = 0.112

[[record]]
compound = "COc1ccc(CCN2C(=O)[C@@]3(Cc4ccccc42)c2ccccc2C(=O)N(Cc2ccccc2Cl)[C@H]3c2ccc(CO)cc2)cc1"
measure_name = "z-score"
result = 0.256

[[record]]
compound = "CCCN1C(=O)[C@@]2(CCC(=O)OC(C)(C)C)N=C(c3ccc(OCCCO)cc3)O[C@H]2c2ccccc21"
measure_name = "z-score"
result = -0.421

[[record]]
compound = "C=C[C@@H](COC(C)=O)N(Cc1ccccc1[N+](=O)[O-])S(=O)(=O)c1ccc(Br)cc1"
measure_name = "z-score"
result = -0.189


Lab note: "COCCOC(=O)N1C(=O)[C@@]2(c3cc(C#CCNC(N)=O)ccc31)[C@H](C(=O)N1CCc3cc(OC)c(OC)cc3C1)[C@H]1C(=O)O[C@H](c3ccccc3)[C@H](c3ccccc3)N1[C@@H]2c1ccc(OCCO)cc1" gave z-score of -0.864

// field: z-score; key: "CN(C)CCCNC(=O)[C@@]1(Cc2ccccc2I)c2ccccc2C(=O)N(Cc2ccccc2C(F)(F)F)[C@H]1c1ccc(CO)cc1" ; value = -2.43
